Entries and their z-score
Method notes: MM1S myeloma cell viability, profiling panel, resazurin fluorescence, basal, 24 h, PK04 Diversity Set (AID 1174);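 also: MM1S multiple myeloma cell line; test concentration not given here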
Test context: higher = more signal, called active from +8 up or from −8 down
Respond with the number and no other words.

**Query** Dear colleague, I am looking for the recorded z-score of the following compound: [N-]=[N+]=NCc1ccccc1C[C@@]1(C(=O)N2CCOCC2)N=C(c2ccc(OCCCO)cc2)O[C@@H]1c1ccccc1CN=[N+]=[N-]
**Result** -2.22

**Query** Dear colleague, I am looking for the recorded z-score of the following compound: C=CCC(OC(C)=O)[C@@H]1[C@@H](N(Cc2cc3ccccc3o2)C(=O)c2ccc(C)cc2)c2cc(OCCCO)ccc2N1C(=O)c1ccc2ccccc2c1 (some centres not stated)
**Result** 0.951

**Query** Dear colleague, I am looking for the recorded z-score of the following compound: COC(=O)C(CC#Cc1ccc2c(c1)[C@]1(C(=O)N2)[C@H](C(=O)NC[C@H](O)c2ccccc2)[C@H]2C(=O)O[C@H](c3ccccc3)[C@H](c3ccccc3)N2[C@@H]1c1ccc(OCCO)cc1)C(=O)OC
**Result** -0.0507

**Query** Dear colleague, I am looking for the recorded z-score of the following compound: C=CC[C@@]1(C(=O)O)N=C(c2ccc(OCCCO)cc2)O[C@@H]1c1ccccc1N=[N+]=[N-]
**Result** -0.702

**Query** Dear colleague, I am looking for the recorded z-score of the following compound: C=C(COC)C(=O)CC[C@H](OC(C)=O)c1cccc(OCCO)c1
**Result** -0.854

**Query** Dear colleague, I am looking for the recorded z-score of the following compound: COCCOC(=O)N1C(=O)[C@@]2(c3cc(C#CC4(O)CCCCCC4)ccc31)[C@H](C(=O)N1CCCCCCC1)[C@H]1C(=O)O[C@H](c3ccccc3)[C@H](c3ccccc3)N1[C@@H]2c1ccccc1OCCO
**Result** -0.297

**Query** Dear colleague, I am looking for the recorded z-score of the following compound: COCCOC(=O)N1C(=O)[C@@]2(c3cc(C#CCNC(N)=O)ccc31)[C@H](c1ccc(O)cc1)N1[C@H](c3ccccc3)[C@H](c3ccccc3)OC(=O)[C@H]1[C@@H]2C(=O)Nc1nc2ccccc2s1
**Result** 1.38

###

Entries and their composite z-score
Method notes: small-molecule microarray binders of probe aEGFR, primary screen, biochemical, biotinylated probe, 635/667 nm fluorescence (AID 1097);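 also: probe is a biotinylated anti-EGFR antibody binding compounds printed on slides; score combines fluorescence near 667 nm and signal to noise of each spot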
Test context: higher = more signal

See these solved cases before continuing.
O=C1N(CCS(=O)(=O)c2ccccc2)c2ccccc2C[C@@]12COC(c1ccc(OCCCO)cc1)=N2 : 0.242
O=C1[C@]2(CO)C=C(Br)[C@@H](C[C@@H]2c2ccccc2)[C@@]12CO2 : -0.0828
Cc1ccc(S[C@]2(C(=O)NCC(C)C)CC(=O)N(Cc3ccccc3)[C@@H]2c2ccc(CO)cc2I)cc1 : 0.0537

**Query** Dear colleague, I am looking for the recorded composite z-score of the following molecule: COc1ccc([Si](C)(C)[C@H]2[C@H](CC(=O)N(CCO)Cc3ccccc3)O[C@@]3(C(=O)N(Cc4cccc(N5CCC5=O)c4)c4ccccc43)[C@@H]2C)cc1
**Result** -0.0334

###

Method notes: small-molecule microarray binders of probe aCHRDL2, primary screen, biochemical, biotinylated probe, 635/667 nm fluorescence (AID 1100)
Test context: higher = more signal
Give T when the value for composite z-score is at least 0.9. Give F when it is less.

Answered cases to consult:
O=C1C2C=CC(C(O)c3cccs3)N(Nc3ccccc3F)C2C(=O)N1c1ccccc1 (stereo not drawn) : F
CN1C(=O)C2C(C1=O)C1C=C(CCCO)C2C(c2cccs2)N1C (stereo not drawn) : F
O=C1N(CCS(=O)(=O)c2ccccc2)c2ccccc2C[C@@]12COC(c1ccc(OCCCO)cc1)=N2 : T
C=CC[C@]1(C(=O)N2CCOCC2)N=C(c2ccc(OCCCO)cc2)O[C@H]1c1ccccc1 : T
COCCOC(=O)N1C(=O)[C@@]2(c3cc(C#CC4=CCCCC4)ccc31)[C@H](C(=O)N1CCc3cc(OC)c(OC)cc3C1)[C@H]1C(=O)O[C@H](c3ccccc3)[C@H](c3ccccc3)N1[C@@H]2c1ccccc1OCCO : F
C=CCN1C(=O)[C@]2(O[C@H](CCO)[C@@H]([Si](C)(C)c3ccc(OC)cc3)[C@@H]2C)c2cc(NC(=O)[C@H](C)O)ccc21 : F
C=C(C(=O)CC[C@H](OC(C)=O)c1ccc(OCCO)cc1)C(C)C : F
COCCCNC(=O)[C@@]1(C)c2ccccc2C(=O)N(Cc2cc(C(F)(F)F)cc(C(F)(F)F)c2)[C@H]1c1ccc(CO)cc1 : T

**Query** Evaluate [N-]=[N+]=NCc1ccccc1[C@H]1OC(c2ccc(OCCCO)cc2)=N[C@@]1(CCS(=O)(=O)c1ccccc1)C(=O)N1CCOCC1 : composite z-score at minimum 0.9?
**Result** T

###

Entries and their z-score
Method notes: MM1S myeloma cell viability, profiling panel, resazurin fluorescence, basal, 24 h, PK04 Diversity Set (AID 1174);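 also: MM1S multiple myeloma cell line; test concentration not given here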
Test context: higher = more signal, called active from +8 up or from −8 down
Respond with the number and no other words.

**Query** Dear colleague, I am looking for the recorded z-score of the following compound: C=CCOC(=O)[C@@H]1[C@H]2C(=O)O[C@H](c3ccccc3)[C@H](c3ccccc3)N2[C@H](c2ccc(OCCOC(=O)[C@@H]3C[C@@H]4C(=O)N[C@@H](Cc5ccccc5)C(=O)N4[C@@H]3c3cccc(OCCO)c3)cc2)[C@@]12C(=O)Nc1ccc(I)cc12
**Result** 0.375

**Query** Dear colleague, I am looking for the recorded z-score of the following compound: CO[C@H]1O[C@H](CO)[C@@H](OC(=O)Nc2ccc3c(c2)OCO3)[C@H](OC(=O)Nc2ccccc2)[C@H]1OC(=O)Nc1ccccc1
**Result** -3.14

**Query** Dear colleague, I am looking for the recorded z-score of the following compound: O=C1OCCC=C[C@H]2OC34C=CCN(Cc5ccccc5)C(=O)[C@H]3N(CCCCCCO)C(=O)[C@@H]4C12 (some centres undefined)
**Result** 0.654

**Query** Dear colleague, I am looking for the recorded z-score of the following compound: O=C1OCC=C[C@H]2OC34C=CCN(c5ccc6ccccc6c5)C(=O)[C@H]3N(CCCO)C(=O)[C@@H]4[C@@H]12 (some centres undefined)
**Result** -0.712

**Query** Dear colleague, I am looking for the recorded z-score of the following compound: COc1ccc([Si](C)(C)[C@H]2[C@H](CC(=O)N(CCO)Cc3ccccc3)O[C@@]3(C(=O)N(Cc4cccc(N5CCC5=O)c4)c4ccccc43)[C@@H]2C)cc1
**Result** -2.76

###

Method notes: binders of probe aFST on microarray, primary screen, stem cell growth factor project, biochemical, small-molecule microarray, fluorescence 635/667 (AID 1086);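 also: score merges 667 nm fluorescence with signal-to-noise of each printed compound spot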
Test context: higher = more signal
Recorded endpoint: composite z-score
Respond with the number and no other words.

**Query** Dear colleague, I am looking for the recorded composite z-score of the following compound: CCCN1C(=O)[C@@]2(CCC(=O)OC(C)(C)C)N=C(c3ccc(OCCCO)cc3)O[C@H]2c2ccccc21
**Result** 0.0225

**Query** Dear colleague, I am looking for the recorded composite z-score of the following compound: CC(C)CNC(=O)[C@@H]1c2ccccc2C(=O)N(Cc2cc(C(F)(F)F)cc(C(F)(F)F)c2)[C@H]1c1ccc(CO)cc1
**Result** 0.0438

**Query** Dear colleague, I am looking for the recorded composite z-score of the following compound: COCCOC(=O)N1C(=O)[C@@]2(c3cc(C#CCC(C(=O)OC)C(=O)OC)ccc31)[C@H](C(=O)N1CCCCCCC1)[C@H]1C(=O)O[C@H](c3ccccc3)[C@H](c3ccccc3)N1[C@@H]2c1ccc(OCCO)cc1
**Result** 3.4

**Query** Dear colleague, I am looking for the recorded composite z-score of the following compound: COCCOC(=O)N1C(=O)[C@@]2(c3cc(C#CCCO)ccc31)[C@H](c1ccc(O)cc1)N1[C@H](c3ccccc3)[C@H](c3ccccc3)OC(=O)[C@H]1[C@@H]2C(N)=O
**Result** 0.102

**Query** Dear colleague, I am looking for the recorded composite z-score of the following compound: C=C[C@@H](COC(C)=O)N(Cc1ccc([N+](=O)[O-])cc1)S(=O)(=O)c1ccc(Br)cc1
**Result** 0.804

**Query** Dear colleague, I am looking for the recorded composite z-score of the following compound: CC(=CC1CCCCC1)[C@@H](NC(=O)c1ccc(C(F)(F)F)cc1)c1ccc(-c2ccccc2)cc1
**Result** 0.112

**Query** Dear colleague, I am looking for the recorded composite z-score of the following compound: CCN(CC)c1ccc(N2CC=CC34O[C@@H]5C=CCCOC(=O)C5[C@H]3C(=O)N(CCCCCO)[C@@H]4C2=O)cc1 (stereo partly specified)
**Result** 0.37

**Query** Dear colleague, I am looking for the recorded composite z-score of the following compound: Cc1ccc([C@H]2C(C(=O)O)=C[C@@H](C)N2S(=O)(=O)c2ccc(C)cc2)cc1
**Result** -0.882
